The measured values listed here are drawn from the nanobody polyreactivity screen of Harvey et al. (2022).

# ASSAY_PROCEDURE: yeast display, Sf9 membrane polyspecificity reagent, FACS + sequencing; frameworks hold sequencing errors
MEASURED_METRIC: polyreactivity (PSR sort gate)

Example results:
QVQLVESGGGLVQAGGSLRLSCAASGLTFSYYAMGWYRQAPGKERELVAAISGRGSTYYADSVKGRFTISRDNAKNTVYLQMNSLKPEDTAVYYCNAYGRFGLYDYWGQGTQVTVSS high polyreactivity
QLQLVESRPGLVPAGGSLRLSCAPSGSTFSYYAMGRYRQAPGKERELDAAISKSGGSTYYADSVKGRFTISRDNAINTVFLQMNSLKPYDTAFYYCSTRSRDPYSVSYRLDYWGQGTQVTVSS low polyreactivity
QVQLVESGGGLVQAGGTLRLSCAASGRTFAYNAMGWYRQAPGKERELVAAITWSGDSTYYADSVKGRFTISRDNAKKTVYLQRNSLKPEDTAVYYCAADYFGGPSYEFDYWGQGTQVTVSS low polyreactivity
QVQLVESGGGLVQAGGSLRLSCAASGSIFLNYAMGWYRQAPGNERELVAGISNGGSTNYADSVKGRFTISRDNAKNTVYLQMNSLKPEDTAVYYCARPAYKSRGKRFDYLGQGTQVTVSS low polyreactivity
QVQLVESGGGLVQAGGSLRLSCAASGSIFQSYAKGWYRQAPGKERELVAAISRGGSTYYADSVKGRFTISRDNAKNTVYLQMNSLKPEDTAVYYCAAGSGGGKYLYYYWGQGTQVTVSS low polyreactivity
QVQLVESGGGLVQAGGSLRLSCAASGSIFWRNAMGWYRQAPGKERELVAAISGNGGTTYYADSVKGRFTISRDNAKNTVYLQMNSLKPEDTAVYYCAKVGKTYRTYEYWGQGTQVTVSS high polyreactivity
QVQLVDSGGGLVQAGGSLRLSCAASGRIFPWYAMGWYRQAPGKEMELVAAINWRAGLTYYADSVKGRFTISRDYAKNTVYLQMNSLKPEDTAVYYCNARSGRGQAYGYWGQGTQVSVSS high polyreactivity
QVQLVESGGGLVQAGGSLRLSCAASGSTLGGYAMGWYRQAPGKERELVASISWDDVRTYYADSVKGRFTISRDNAKNTVYLQMNSLKPEDTAVYYCAKGDIEYFWSRIYGYWGQGTQVTVSS low polyreactivity
QVQLEESWGGLVQAGGSLRLICAASGSIFSYYAMGWYRQAPGKERELVAVITSGGSTYYADSVKGRFTISRDNAKNTVYLQMNSLKPEDTAVYYCAVKYPELRTWGYYYWGQGTQVTVSS high polyreactivity
QVQLVESGGGLVQAGGSLRLSCAASGSIFPTNAMGWYRQAPGKERELVAAITSTAGSTYYADSVKGRFTISRDNAKNSVYLQMNSLKPEDTAVYYCAATYKVGVKSWYDYWGQGTQVTVSS high polyreactivity

The sequence identified as QVQLVESGGGLVQAGGSLRLSCAASGSILDIYAMGWYRQAPGKERELVAGISTSGGSTYYADSVKGRFTISRDNAKNTVYLQMNSLNPEDTAVYYCAKDYGYQGLTRTLYCAYLEYDYWGQGTQVTVSS registered its polyreactivity (PSR sort gate) at low polyreactivity

---

# ASSAY_PROCEDURE: yeast display, Sf9 membrane polyspecificity reagent, FACS + sequencing; frameworks hold sequencing errors
MEASURED_METRIC: polyreactivity (PSR sort gate)

Example results:
QVQLVESGGGLVQAGGSLRLSCAASGGTFYAYAMGWYRQAPGKERELVAAISRSGSTYYADSVKGRFTISRDNAKNTVYLQMNSLKPEDTAVYYCAARRARRDPVGYVYAKYGYWGQGTQVTVSS high polyreactivity
QVQLVESGGGLVQAGGSLRLSCAASGRIFIVYVMVWYRQAPGKESELVAAITGRGGSTYYADSVKGRFTISHDNAKNTVYLQMNSLKPEDTAVYYCDDYDGGGYDSWGQGNQVTVSS low polyreactivity
QVQLVESGGGLVQAGGSLRLSCAASGSIFRLNAMGWYRQAPGKERELVAAIDGSDGSTYYADSVKGRFTISRDNAKNTVYLQMNSLKPEDTAVYYCAAERGYPTDYYSGSDDYWGQGTQVTVSS low polyreactivity
QVQLVESGGGLVQAGGSLRLSCAASGITLGRYAMGWYRQAPGQERELVAAISSWSGGSTTYADSVKGRFTISRDNAKNTVYLQMNSLKPEDTAVYYCNARRYYGRYYLGHSDYDYWGQGTQVTVSS high polyreactivity
QVQLVESGGGLVQAGGSLRLSCAASGLTFSKNAMGWYRQAPGKERELVATISYSSSRTNYADSVKGRFTISRDNAKNTVYLQMNSLKPEDTAVYYCAARVYKGWPTHYDYWGQGTQVTVSS high polyreactivity
QVQLVESGGGIVQAGGSLRLSCAASGFIFDAYAMGWYRQAPGKERELVAGISIGGRTIYADSVKGRFTISRDNAKNTVYLQMNSLKPEDTAVYYCAARNYRYYYGSYYRGPITNYEYWGQGTQVTVSS low polyreactivity

Kindly give each listed record's polyreactivity (PSR sort gate).
1. QVQLVESGGGLVQAGGSLRLSCAASGSIFYRNAMGWYRQAPGKERELVAAISGRGGSTYYADSVKGRFTISRDYAKNTVYLQMYSLKPEDTAVYYCAKDHYRERKYDYWGQGTQVTVSS
2. QVQLVESGGGLVQAGGSLRLSCAASGFIFGNYDMEWYRPAPGKERELVAAITNGGGNTYYADSVKGRITISRDNAKNTVYLQMNSLKPEDTAVSYCHPLRYYYWGQGTQVTVSS
3. QVQLVESGGGLVQEGGSLRLICAASGRTFYKNAMGWYRPAPAKERELVAAISSRGGRTTYADSLKGRYTISRDNAKNTVYLQMNSLKTEDTAVYYCAADWEYDYWGQGTHVTVSS

1. low polyreactivity
2. high polyreactivity
3. high polyreactivity

Kindly give each listed record's polyreactivity (PSR sort gate).
1. QVQLVESGGGLVQAGGSLRLSCAASGRTFRFNAMGWYRQAPGKERELVAAISFRGGSTYYADSVKGRFTISRDNAKNTVYLQMNSLKPEHTAVYYCAARARTGTYRDMYYWGQGTQVTVSS
2. QVQLVESGGGLVQAGGSLSLSCAASGRTFLRYAMGWYRQAPGKERELVAAISWSGGRTYYADSVKGRFTISRDNAKNSVYLQMNSLKAEDTAVYYCNNVVLYGALYYYCGQGTQVTVSS
3. QVQLVESGVGLVQAGVSLRLSSAASGSIFRLYTMGWYRQATGKERELVAAITWSGGRTYYADSVKGRFTISRDNAKNTVYLQMNSLKPEDTAVYYCAADNWYSTYDYWGRGTQVTVSS
4. QVHLLESGGGLVQAGGSLRLICAASGRILYPYALVWYRQAPGKETELVAAITFRGGNTYYADSVKARFTLSRDYAKNTVYLQMNSMKPEDTAVYFCAARKSPRSQVRGRSYYWGQGSQVTVSS
5. QVQLVESGGGLVQAGGSLRLSCAASGIIFWWYDMGWYRQAPGTERELVAAISTGSRTNYADSVKGRFTISRDNAKNTVYLQMNSLKPEDTAVYYCAAEWVGFSGYYGSGYEMDYWGQGTQVTVSS

1: high polyreactivity; 2: high polyreactivity; 3: high polyreactivity; 4: high polyreactivity; 5: low polyreactivity

Kindly give each listed record's polyreactivity (PSR sort gate).
1. QVQLVESGGGLVQAGGSLRLSCAASGITSPSYAMGWYRQAPGKERELVAAISTSGGDTYYADSVKGRFTISRDKAKNTVYLQMNSLKPEDTAVYYCAAPVPAYQYYYRLKSFGRRYDHWGQGTQVTVSS
2. QVQLVESGGGLVQAGGSLRLSCAASGRIFHWYAMGWYRQAPGKERELVATANTSYADSVKGRFTISRDNAKNTVYLQMNSLKPEDTAVYYCATVGPRGRSLGDYWGQGTQVTVSS
3. QVQLVESGGGLVQAGGSLRLSCAASGRIFGYYAMGWYRQAPGKERELVAAISSSDGSTYYADSVKGRFTISRDNAKNTVYLQMNSLKPEDTAVYYCAASYYNWDVYQLSYRYDYWGQGTQVTVSS
4. QVQLVESGGGLVQAGGSLRLSCAGSGATYERYAMGWSRPAPGKERALVAASNKRGGNTYYADSVKGRFTISRDNAKKTVYLQMNSLKPEDTAVYYCAADHLDRTEFPYYYWGQGTQVTVSS
5. QVQLVESGGGLVQAGGSLRLSCAASGSIFDIYGMGWYRQAPGKERELVASISGGAGSTNYADSVKGRFTISRDHAKNTVYLQMNSLKPEDTAVYYCAAEVYVPDYFQHKFDVEYEYWGQGTQVTVSS
6. QVQLVESGGGLDQAGGSLRLSCAASGYTFNLNAMGWYRQAPGKERELVAAISSGDSTDYADSVKGRFTISRDNAKNTVYLQMHSLQPEDTAVYYCNADLPVVWRRDFWGDLYWGQATQVTVSS
7. QVQLVESGGGLVQAGGSLRLSCAASGLIFAEYAMGWYRQAPGKERELVARITSGGSTDYADSVKGRFTISRDNAKNTVYLQMNRLKPEDTAVYYCSARYYSQDKNASTASDFDYWGQGTQVTVSS

["low polyreactivity", "low polyreactivity", "low polyreactivity", "high polyreactivity", "low polyreactivity", "low polyreactivity", "low polyreactivity"]
